- Tested on: COLO-680N (Esophageal Squamous Cell Carcinoma)
- EXPERIMENT SUMMARY: combination Emax (second highest fraction inhibited in the dose matrix, 72 h); higher = more inhibition; extreme values may be limits of the assay
Below, each entry is listed with its recorded combination Emax.

{"COMPOUND": "CN(CCO)CC[C@H](CSc1ccccc1)Nc1ccc(S(=O)(=O)NC(=O)c2ccc(N3CCC([C@@H](O)c4ccccc4-c4ccc(Cl)cc4)CC3)cc2)cc1S(=O)(=O)C(F)(F)F [AZD4320] + CC(=O)O[C@H]1C(=O)[C@@]2(C)[C@H]([C@H](OC(=O)c3ccccc3)[C@]3(O)C[C@H](OC(=O)[C@H](O)[C@@H](NC(=O)c4ccccc4)c4ccccc4)C(C)=C1C3(C)C)[C@]1(OC(C)=O)CO[C@@H]1C[C@@H]2O [Paclitaxel] (first compound max 1 µM, 7x7, partner max 3 µM)", "ASSAY SYSTEM": "COLO-680N (Esophageal Squamous Cell Carcinoma)", "combination Emax": 0.771}
{"COMPOUND": "Cc1c2c(nn1C)CSCc1cc(n(C)n1)CSc1cc(c3ccccc3c1)OCCCc1c(C(=O)O)n(C)c3c-2c(Cl)ccc13 [AZD5991] + C[C@@H](Nc1cc(F)cc(F)c1)c1cc(C(=O)N(C)C)cc2c(=O)cc(N3CCOCC3)oc12 [AZD8186] (first compound max 1 µM, 7x7, partner max 3 µM)", "ASSAY SYSTEM": "COLO-680N (Esophageal Squamous Cell Carcinoma)", "combination Emax": 0.215}
{"COMPOUND": "CS(=O)(=O)CCNCc1ccc(-c2ccc3ncnc(Nc4ccc(OCc5cccc(F)c5)c(Cl)c4)c3c2)o1 [Lapatinib] + C[C@@H](Oc1cc(-c2cnn(C3CCNCC3)c2)cnc1N)c1c(Cl)ccc(F)c1Cl [Crizotinib] (first compound max 10 µM, 7x7, partner max 10 µM)", "ASSAY SYSTEM": "COLO-680N (Esophageal Squamous Cell Carcinoma)", "combination Emax": 0.483}
{"COMPOUND": "CC1(C)CCC(CN2CCN(c3ccc(C(=O)NS(=O)(=O)c4ccc(NCC5CCOCC5)c([N+](=O)[O-])c4)c(Oc4cnc5[nH]ccc5c4)c3)CC2)=C(c2ccc(Cl)cc2)C1 [Venetoclax] + C=CCn1c(=O)c2cnc(Nc3ccc(N4CCN(C)CC4)cc3)nc2n1-c1cccc(C(C)(C)O)n1 [AZD1775] (first compound max 1 µM, partner max 1 µM)", "ASSAY SYSTEM": "COLO-680N (Esophageal Squamous Cell Carcinoma)", "combination Emax": 0.257}
{"COMPOUND": "O=C(c1cc(Cc2n[nH]c(=O)c3ccccc23)ccc1F)N1CCN(C(=O)C2CC2)CC1 [Olaparib] + Cc1c2c(nn1C)CSCc1cc(n(C)n1)CSc1cc(c3ccccc3c1)OCCCc1c(C(=O)O)n(C)c3c-2c(Cl)ccc13 [AZD5991] (first compound max 10 µM, 7x7, partner max 1 µM)", "ASSAY SYSTEM": "COLO-680N (Esophageal Squamous Cell Carcinoma)", "combination Emax": 0.0855}
{"COMPOUND": "CCc1c2c(nc3ccc(O)cc13)-c1cc3c(c(=O)n1C2)COC(=O)[C@]3(O)CC [SN-38] + O=C(c1cc(Cc2n[nH]c(=O)c3ccccc23)ccc1F)N1CCN(C(=O)C2CC2)CC1 [Olaparib] (first compound max 0.3 µM, 7x7, partner max 10 µM)", "ASSAY SYSTEM": "COLO-680N (Esophageal Squamous Cell Carcinoma)", "combination Emax": 0.386}
